# TARGET UNDER TEST: human JAK1 (Homo sapiens)
# Construct: catalytic domain, amino acids 866-1154; catalog number PV4774
# PROCEDURE SUMMARY: JAK1 inhibition assay (polyGT substrate / Ulight-JAK1 peptide)
# CONDITION LABEL: recombinant human JAK1 catalytic domain; polyGT or Ulight-JAK1 peptide assay
pIC50: −log10 of the molar value.
MEASURED ATTRIBUTE: pIC50

These recorded examples may help you get a feel for the data.
| MOLECULE | pIC50 |
| --- | --- |
| CCc1cc(C(=O)N2CCOCC2)ccc1N(C)c1cc2c(cn1)ncn2C [Compound 117] | 6.30 to 7.00 |
| CCc1cc(N2CC(C#N)C2)ncc1N(C)c1cc2c(cn1)ncn2C [Compound 402] | 7.00 to 11.00 |
| CCc1cc(C2=CCN(C(=O)C(F)F)CC2)ccc1N(C)c1cc2c(cn1)ncn2C [Compound 197] | 7.00 to 11.00 |

human JAK1 (Homo sapiens) pIC50 of Cc1cc(OCc2ccc(C#N)nc2)ccc1N(C)c1cc2c(cn1)ncn2C [Compound 89] is 6.30 to 7.00

human JAK1 (Homo sapiens) pIC50 of CN(c1cc2c(cn1)ncn2C)c1ccc(C#N)cc1F [Compound 267] is 6.00 to 6.30

human JAK1 (Homo sapiens) pIC50 of Cc1ccc(OCC(=O)N(C)C)cc1N(C)c1cc2c(cn1)ncn2C [Compound 59] is 6.30 to 7.00

human JAK1 (Homo sapiens) pIC50 of Cc1c(OCc2ccccc2)cccc1N(C)c1cc2c(cn1)ncn2C [Compound 75] is 6.00 to 6.30

human JAK1 (Homo sapiens) pIC50 of CCc1nc(C2CN(C(=O)OC(C)(C)C)C2)cnc1N(C)c1cc2c(cn1)ncn2C [Compound 457] is < 6.00

human JAK1 (Homo sapiens) pIC50 of CCc1cc(C(C#N)N2CCC(O)CC2)ccc1N(C)c1cc2c(cn1)ncn2C (stereo not drawn) [Compound 447] is 7.00 to 11.00

human JAK1 (Homo sapiens) pIC50 of CCc1cc(C(C#N)N2CC(O)C2)ccc1N(C)c1cc2c(cn1)ncn2C (stereo not drawn) [Compound 450] is 7.00 to 11.00

----------
IC50 listing for selected compounds.
# TARGET UNDER TEST: human JAK1 (Homo sapiens)
# Construct: catalytic domain, amino acids 866-1154; catalog number PV4774
# PROCEDURE SUMMARY: JAK1 inhibition assay (polyGT substrate / Ulight-JAK1 peptide)
# CONDITION LABEL: recombinant human JAK1 catalytic domain; polyGT or Ulight-JAK1 peptide assay

| COMPOUND | RESULT |
| --- | --- |
| CCc1ccccc1N(C)c1cc2c(cn1)ncn2CC | 501 to 1000 nM |
| CCc1cc(C(=O)NCC2CCCCN2C)ccc1N(C)c1cc2c(cn1)ncn2C (centres unmarked) | 101 to 500 nM |
| CCc1cc(C(=O)NC2CN(C(=O)OC(C)(C)C)C2)ccc1N(C)c1cc2c(cn1)ncn2C | 501 to 1000 nM |
| CCc1cc(N2CC[C@@H](F)C2)ncc1N(C)c1cc2c(cn1)ncn2C | 0.01 to 100 nM |
| CCc1cc(N2CC(C(=O)NCC#N)C2)ncc1N(C)c1cc2c(cn1)ncn2C | 101 to 500 nM |

According to the records, this compound CCc1cc(C(C#N)N2CCC(CO)CC2)ccc1N(C)c1cc2c(cn1)ncn2C (centres unmarked) displays IC50 of 0.01 to 100 nM

According to the records, this compound `CCc1cc(CNS(=O)(=O)N2CCC(F)(F)C2)ccc1N(C)c1cc2c(cn1)ncn2C` displays IC50 of 0.01 to 100 nM

According to the records, this compound `CCc1cc(CNS(C)(=O)=O)cc(F)c1N(C)c1cc2c(cn1)ncn2C` displays IC50 of 0.01 to 100 nM

According to the records, this compound `CCc1cc(C2=CCN(C(=O)Nc3nncs3)CC2)ccc1N(C)c1cc2c(cn1)ncn2C` displays IC50 of 0.01 to 100 nM

According to the records, this compound `Cc1cc(CO)ccc1N(C)c1cc2c(cn1)ncn2C` displays IC50 of 0.01 to 100 nM

According to the records, this compound `CCc1cc(C(=O)NCC#N)ccc1N(C)c1cc2c(cn1)ncn2C` displays IC50 of 0.01 to 100 nM

According to the records, this compound `CCc1cc(C2CN(C(=O)CC#N)C2)ncc1N(C)c1cc2c(cn1)ncn2C` displays IC50 of 0.01 to 100 nM

----------
# TARGET UNDER TEST: human TYK2 (Homo sapiens)
# Construct: catalytic domain (amino acids 871-1187; catalog number 08-147)
# Sequence (P29597 871-1187): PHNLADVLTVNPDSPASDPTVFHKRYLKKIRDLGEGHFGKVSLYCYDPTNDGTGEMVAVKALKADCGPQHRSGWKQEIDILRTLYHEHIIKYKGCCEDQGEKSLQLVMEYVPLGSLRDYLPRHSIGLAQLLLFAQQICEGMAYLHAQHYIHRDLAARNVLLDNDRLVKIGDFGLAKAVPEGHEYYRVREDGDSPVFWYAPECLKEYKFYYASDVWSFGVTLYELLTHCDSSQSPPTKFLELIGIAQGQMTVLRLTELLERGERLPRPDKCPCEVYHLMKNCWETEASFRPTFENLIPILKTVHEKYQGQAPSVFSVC
# PROCEDURE SUMMARY: TYK2 inhibition assay
# CONDITION LABEL: recombinant human TYK2 catalytic domain, polyGT substrate
pIC50: −log10 of the molar value.
MEASURED ATTRIBUTE: pIC50

| COMPOUND | RESULT |
| --- | --- |
| CCc1cc(-c2cnn(C)c2)ccc1N(C)c1cc2c(cn1)ncn2C | 7.00 to 11.00 |
| CCc1cc(C2=CCN(C(=O)NC3(C)CC3)CC2)ccc1N(C)c1cc2c(cn1)ncn2C | 7.00 to 11.00 |
| CCc1cc(-c2ccccc2)ccc1N(C)c1cc2c(cn1)ncn2C | 7.00 to 11.00 |

human TYK2 (Homo sapiens) pIC50 of `CCc1cc(C2CCN(S(C)(=O)=O)CC2)ncc1N(C)c1cc2c(cn1)ncn2C` is 6.00 to 6.30

human TYK2 (Homo sapiens) pIC50 of `CCc1cc(-c2ccsc2)ncc1N(C)c1cc2c(cn1)ncn2C` is 7.00 to 11.00

human TYK2 (Homo sapiens) pIC50 of `CCNC(=O)N1CC=C(c2ccc(N(C)c3cc4c(cn3)ncn4C)c(CC)c2)CC1` is 7.00 to 11.00

human TYK2 (Homo sapiens) pIC50 of `CCc1ccccc1N(CCN1CCOCC1)c1cc2c(cn1)ncn2C` is < 6.00

human TYK2 (Homo sapiens) pIC50 of `CCc1cc(C(=O)NC#N)ccc1N(C)c1cc2c(cn1)ncn2C` is 7.00 to 11.00

human TYK2 (Homo sapiens) pIC50 of `CCc1cc(C#N)c(C(F)(F)F)cc1N(C)c1cc2c(cn1)ncn2C` is < 6.00

human TYK2 (Homo sapiens) pIC50 of CCc1ccccc1N(CC(F)F)c1cc2c(cn1)ncn2C [Compound 463] is 7.00 to 11.00

human TYK2 (Homo sapiens) pIC50 of `CCc1cc(C2=CCN(C(=O)N(C)CC#N)CC2)ccc1N(C)c1cc2c(cn1)ncn2C` is 7.00 to 11.00

human TYK2 (Homo sapiens) pIC50 of `CCc1cc(-c2cnccn2)ccc1N(C)c1cc2c(cn1)ncn2C` is 7.00 to 11.00

human TYK2 (Homo sapiens) pIC50 of CCc1cc(C(C#N)N2CC(NC(=O)OC(C)(C)C)C2)ccc1N(C)c1cc2c(cn1)ncn2C (stereo not drawn) is 7.00 to 11.00

human TYK2 (Homo sapiens) pIC50 of `CCc1cc(C(=O)NC)ccc1N(C)c1cc2c(cn1)ncn2C` is 6.30 to 7.00

----------
IC50 listing for selected molecules.
# TARGET UNDER TEST: human JAK1 (Homo sapiens, UniProt P23458)
# Construct: catalytic domain, amino acids 866-1154; catalog number PV4774
# Sequence (P23458 866-1154): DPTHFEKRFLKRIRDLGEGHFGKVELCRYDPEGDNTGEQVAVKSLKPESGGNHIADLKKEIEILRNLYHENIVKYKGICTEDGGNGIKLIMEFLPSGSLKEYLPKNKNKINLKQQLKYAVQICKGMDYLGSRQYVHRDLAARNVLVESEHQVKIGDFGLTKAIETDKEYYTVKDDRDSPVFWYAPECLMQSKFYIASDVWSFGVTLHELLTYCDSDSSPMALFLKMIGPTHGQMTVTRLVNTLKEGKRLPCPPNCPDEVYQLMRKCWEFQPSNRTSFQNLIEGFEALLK
# PROCEDURE SUMMARY: JAK1 inhibition assay (polyGT substrate / Ulight-JAK1 peptide)
# CONDITION LABEL: recombinant human JAK1 catalytic domain; polyGT or Ulight-JAK1 peptide assay

These recorded examples may help you get a feel for the data.
| MOLECULE | TARGET UNDER TEST | IC50 |
| --- | --- | --- |
| CCN(c1cccc(Oc2ccccc2)c1)c1cc2c(cn1)ncn2C [Compound 11] | human JAK1 (Homo sapiens, UniProt P23458) | 101 to 500 nM |
| Cc1cc(OCC(=O)N(C)C)ccc1N(C)c1cc2c(cn1)ncn2C [Compound 51] | human JAK1 (Homo sapiens, UniProt P23458) | > 1000 nM |
| CCCOc1ccc(N(C)c2cc3c(cn2)ncn3C)cc1 [Compound 22] | human JAK1 (Homo sapiens, UniProt P23458) | 101 to 500 nM |
| CCc1cc(CNS(C)(=O)=O)ccc1N(C)c1cc2c(cn1)ncn2C [Compound 190] | human JAK1 (Homo sapiens, UniProt P23458) | 0.01 to 100 nM |
| CCc1cc(C(=O)NCCc2ccccc2)ccc1N(C)c1cc2c(cn1)ncn2C [Compound 99] | human JAK1 (Homo sapiens, UniProt P23458) | 101 to 500 nM |

// moving on: another record for IC50
According to the records, this molecule CCc1cc(-c2cccc(C#N)c2)ccc1N(C)c1cc2c(cn1)ncn2C [Compound 163] displays IC50 of 0.01 to 100 nM
